biological target: T1, FcRn-p3 fusion protein (human, UniProt P55899 24-297; P61769 21-119); assay: phage ELISA pH6 (est.)
T1 construct: baculovirus expressed; coated on ELISA wells; not shown: amino terminal part of bacteriophage p3 protein and CVDE protein
T1 sequence (P55899 24-297, chain 1 of 2): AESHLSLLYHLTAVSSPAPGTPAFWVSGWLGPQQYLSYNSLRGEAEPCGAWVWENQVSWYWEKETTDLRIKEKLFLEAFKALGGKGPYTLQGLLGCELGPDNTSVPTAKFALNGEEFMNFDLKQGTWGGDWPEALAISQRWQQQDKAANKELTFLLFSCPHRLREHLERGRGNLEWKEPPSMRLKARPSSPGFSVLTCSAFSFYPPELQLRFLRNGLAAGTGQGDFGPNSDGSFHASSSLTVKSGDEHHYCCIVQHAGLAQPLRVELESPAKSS
T1 sequence (P61769 21-119, chain 2 of 2): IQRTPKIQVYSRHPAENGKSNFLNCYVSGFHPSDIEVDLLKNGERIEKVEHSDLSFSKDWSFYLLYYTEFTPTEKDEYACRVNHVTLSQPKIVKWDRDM
# Lookup of reported Ratio/FWT keyed by entry
Form entry: value (fold) — number only.

Worked examples follow.
T4A_48 (other, EU numbering) CPPCPAPELLGGPSVFLFPPKPKDTLMISRTPEVTCVVVDVSHEDPEVKFNWYVDGVEVHNAKTKPREEQYNSTYRVVSVLTILHQDWLDGKEYKCKVSNKALPVPIEKTISKAKGQPREPQVYTLPPSRDELTKNQVSLTCLVKGFYPSDIAVEWVSNGQPENNYKTTPPVLDSDGSFFLYSKLTVDKSRWQQGNVFSCSVMHEALHYHYTQKSLSLSPGK :: 14.5
T5A_57 (other, EU numbering) CPPCPAPELLGGPSVLLFPPKPKDTLMISRTPEVTCVVVDVSHEDPEVKFNWYVDGVEVHNAKTKPREEQYNSTYRVVSVLTVLHQDWLDGKEYKCKVSNKALPVPIEKTISKAKGQPREPQVYTLPPSRDELTKNQVSLTCLVKGFYPSDIAVEWESNGQPENNYRTTPPVLDSDGSFFLYSKLTVDKSRWQQGNVFSCSVMHEALHYHYTQKSLSLSPGK :: 15.8

Shifting focus to the binder that follows.
Problem: // query Ratio/FWT value for entry T5A_55 (other, EU numbering) CPPCLAPELLGGPSVLLLPPKPKDTLMISRTPEVTCVVEDVSHEDPEVKFNWYVDGVEVHNAKTKPREEQYNSTYRVVSVLPVLHQDWLNGKEYKCKVSNKALPAPIEKTISKAKGQPREPQVYTLPPSRDELTKNQVSLTCLVKGFYPSDIVVEWESNGQPENNYKTTPPVLDSDGSFFLYSKLTVDKSRWQQGNVFSCSVMHEALHNHYTQKSLSLSPGK
Result: 17.9
